tested on: PHF6; experiment: 3' UTR reporter interaction score (median-centred robust z-score of log2 firefly/Renilla activity); higher = less repression of the 3' UTR reporter; conditions: HEK293T; 48 h
readout.kind: 3' UTR reporter interaction score
// response body must contain only the number

ordered.residues: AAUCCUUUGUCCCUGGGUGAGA
readout.kind: 3' UTR reporter interaction score
val: -0.0711

ordered.residues: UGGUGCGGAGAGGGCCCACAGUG
readout.kind: 3' UTR reporter interaction score
val: 0.575

ordered.residues: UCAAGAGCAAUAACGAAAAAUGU
readout.kind: 3' UTR reporter interaction score
val: 0.162

ordered.residues: UUAAGGCACGCGGUGAAUGCCA
readout.kind: 3' UTR reporter interaction score
val: -1.29

ordered.residues: CCCAGAUAAUGGCACUCUCAA
readout.kind: 3' UTR reporter interaction score
val: -0.296

Memo: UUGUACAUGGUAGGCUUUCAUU , reported 3' UTR reporter interaction score: -1.11

The reported value for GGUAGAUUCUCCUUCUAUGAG in terms of 3' UTR reporter interaction score is 0.87

The value of 3' UTR reporter interaction score measured for the sequence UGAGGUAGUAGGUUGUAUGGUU turned out to be 0.487

Recorded result, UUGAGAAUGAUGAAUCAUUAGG , 3' UTR reporter interaction score: -1.78

Noted for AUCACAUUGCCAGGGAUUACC : its 3' UTR reporter interaction score reads 0.0907

So, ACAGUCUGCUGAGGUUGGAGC ? Its 3' UTR reporter interaction score was 0.259

Value of 3' UTR reporter interaction score reported for the sequence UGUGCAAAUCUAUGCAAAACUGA is 0.299

// 3' UTR reporter interaction score value for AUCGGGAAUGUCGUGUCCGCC : 1.55

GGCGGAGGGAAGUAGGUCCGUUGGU yielded 3' UTR reporter interaction score of 0.0679

The recorded 3' UTR reporter interaction score for entry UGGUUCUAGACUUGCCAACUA equals 0.0797

Lookup result for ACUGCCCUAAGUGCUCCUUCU ; measured 3' UTR reporter interaction score: -0.374

The sequence identified as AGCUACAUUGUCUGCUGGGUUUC registered its 3' UTR reporter interaction score at -0.314

Please fill in: 3' UTR reporter interaction score reported for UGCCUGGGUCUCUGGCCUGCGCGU = 0.782

The reported 3' UTR reporter interaction score of the sequence UGGAAUGUAAAGAAGUAUGUA was 0.925

----------
test system: FBXW7; assay: 3' UTR reporter interaction score (median-centred robust z-score of log2 firefly/Renilla activity); higher = less repression of the 3' UTR reporter; details: HEK293T; 48 h
3' UTR reporter interaction score below 0.7 gives -1; 3' UTR reporter interaction score at or above it gives 1.

ordered.residues: UCAAAUGCUCAGACUCCUGU
label.class: 1
//
ordered.residues: UGAGUUGGCCAUCUGAGUGAG
label.class: -1
//
ordered.residues: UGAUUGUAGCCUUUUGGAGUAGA
label.class: -1
//
ordered.residues: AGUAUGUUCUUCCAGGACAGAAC
label.class: -1
//
ordered.residues: GAGCCAGUUGGACAGGAGC
label.class: -1
//
ordered.residues: UACCCAUUGCAUAUCGGAGUUG
label.class: 1
//
ordered.residues: AAAGUGCUUCCUUUUAGAGGGUU
label.class: 1
//
ordered.residues: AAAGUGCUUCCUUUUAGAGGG
label.class: 1

(Q) Given the entry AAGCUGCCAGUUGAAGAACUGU , answer whether its 3' UTR reporter interaction score meets or surpasses 0.7.
(A) -1

(Q) Entry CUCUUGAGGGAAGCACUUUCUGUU : is its 3' UTR reporter interaction score no less than 0.7?
(A) 1

(Q) API: above_or_equal(metric=3' UTR reporter interaction score, cutoff=0.7) for item GUCAACACUUGCUGGUUUCCUC
(A) 1

(Q) Has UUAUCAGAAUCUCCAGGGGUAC a recorded 3' UTR reporter interaction score greater than or equal to 0.7?
(A) -1

(Q) Check this sequence for 3' UTR reporter interaction score at or above 0.7: GAUGAGCUCAUUGUAAUAUG
(A) 1

(Q) Kindly determine if 3' UTR reporter interaction score recorded for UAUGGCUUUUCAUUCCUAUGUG is above or exactly 0.7.
(A) -1

(Q) Say whether AUUACAUGGCCAAUCUC shows 3' UTR reporter interaction score of 0.7 or more.
(A) -1
